These entries and their values trace back to paper PMC9029538.

# Protocol summary: Plasma pharmacokinetics after IV CMS (Period 1)
# Settings: human, in vivo, iv, 2.5 mg/kg, Cmax, Period 1, Cohort 2: IV 2.5 mg/kg colistin base activity q8h x 3 doses; plasma after final dose; mean (SD); SD
Where a SMILES comes first, the peptide text is derived from it. Bridges are numbered along the chain shown (N, C = ends). [ ]: non-standard residue; d: D form. The star is where a group is joined. Heptanoyl(6-Me) = CC(C)CCCCC(=O)*; X1 = CC[C@H](C)CCCCC(=O)*; Dab = NCC[C@H](N)C(=O)O
Overview of recorded Cmax for various molecules
Please give a number only; it is taken to be in ng/mL.

Molecule	Cmax, ng/mL
CC[C@H](C)CCCCC(=O)N[C@@H](CCN)C(=O)N[C@H](C(=O)N[C@@H](CCN)C(=O)N[C@H]1CCNC(=O)[C@H]([C@@H](C)O)NC(=O)[C@H](CCN)NC(=O)[C@H](CCN)NC(=O)[C@H](CC(C)C)NC(=O)[C@@H](CC(C)C)NC(=O)[C@H](CCN)NC1=O)[C@@H](C)O [colistin A] (X1-[Dab]T[Dab][Dab][Dab][dL]L[Dab][Dab]T; lactam 4-C)	5360

Form: molecule = CC(C)CCCCC(=O)N[C@@H](CCN)C(=O)N[C@H](C(=O)N[C@@H](CCN)C(=O)N[C@H]1CCNC(=O)[C@H]([C@@H](C)O)NC(=O)[C@H](CCN)NC(=O)[C@H](CCN)NC(=O)[C@H](CC(C)C)NC(=O)[C@@H](CC(C)C)NC(=O)[C@H](CCN)NC1=O)[C@@H](C)O [colistin B] ({Heptanoyl(6-Me)}-[Dab]T[Dab][Dab][Dab][dL]L[Dab][Dab]T; lactam 4-C) ; Cmax = 891

###

# Protocol summary: clinical
# Settings: human, in vivo, inhaled or intranasal, 75 mg, Cmax,; SD
# Description: During dosing Period 1, subjects in Cohorts 1, 2, and 3 received 2 to 3 doses of IV CMS (total exposure 5–10 mg/kg) based on the specific cohort regimen. […] Concentration versus time profiles were investigated for each of the four colistin analytes. […] In addition, the presence or absence of a proportionality dose-dependent effect was determined.
Where a SMILES comes first, the peptide text is derived from it. Bridges are numbered along the chain shown (N, C = ends). [ ]: non-standard residue; d: D form. The star is where a group is joined. X1 = CC[C@H](C)CCCCC(=O)*; Dab = NCC[C@H](N)C(=O)O
Result type: Cmax (ng/mL)
Reply numerically in ng/mL, unit not repeated.

Looking up CC[C@H](C)CCCCC(=O)N[C@@H](CCN)C(=O)N[C@H](C(=O)N[C@@H](CCN)C(=O)N[C@H]1CCNC(=O)[C@H]([C@@H](C)O)NC(=O)[C@H](CCN)NC(=O)[C@H](CCN)NC(=O)[C@H](CC(C)C)NC(=O)[C@@H](CC(C)C)NC(=O)[C@H](CCN)NC1=O)[C@@H](C)O [colistin A] (X1-[Dab]T[Dab][Dab][Dab][dL]L[Dab][Dab]T; lactam 4-C) , I found its Cmax recorded as 493

###

# Protocol summary: Plasma pharmacokinetics after IV CMS (Period 1)
# Settings: human, in vivo, iv, 2.5 mg/kg, Cmax, Period 1, Cohort 1: IV 2.5 mg/kg colistin base activity q12h x 2 doses; plasma after final dose; mean (SD); SD
Where a SMILES comes first, the peptide text is derived from it. Bridges are numbered along the chain shown (N, C = ends). [ ]: non-standard residue; d: D form. The star is where a group is joined. Heptanoyl(6-Me) = CC(C)CCCCC(=O)*; X1 = CC[C@H](C)CCCCC(=O)*; Dab = NCC[C@H](N)C(=O)O
Measured Cmax, listed per entry for reference.
Give a bare numeral; the unit ng/mL is implied.

Molecule	Unit annotation	Cmax
CC(C)CCCCC(=O)N[C@@H](CCN)C(=O)N[C@H](C(=O)N[C@@H](CCN)C(=O)N[C@H]1CCNC(=O)[C@H]([C@@H](C)O)NC(=O)[C@H](CCN)NC(=O)[C@H](CCN)NC(=O)[C@H](CC(C)C)NC(=O)[C@@H](CC(C)C)NC(=O)[C@H](CCN)NC1=O)[C@@H](C)O [colistin B] ({Heptanoyl(6-Me)}-[Dab]T[Dab][Dab][Dab][dL]L[Dab][Dab]T; lactam 4-C)	ng/mL	570

# evaluate next
GET /value?item= CC[C@H](C)CCCCC(=O)N[C@@H](CCN)C(=O)N[C@H](C(=O)N[C@@H](CCN)C(=O)N[C@H]1CCNC(=O)[C@H]([C@@H](C)O)NC(=O)[C@H](CCN)NC(=O)[C@H](CCN)NC(=O)[C@H](CC(C)C)NC(=O)[C@@H](CC(C)C)NC(=O)[C@H](CCN)NC1=O)[C@@H](C)O [colistin A] (X1-[Dab]T[Dab][Dab][Dab][dL]L[Dab][Dab]T; lactam 4-C) &field=Cmax returns 3950
